Test system: Vero E6
testName: cell viability relative to DMSO; higher = less toxic
conditionContext: 72 h; 1000 nM
observable: cell viability (%)

compound: CN(C)C(=O)c1ccc(S(=O)(=O)c2ccc(NC(=O)[C@@](C)(O)C(F)(F)F)c(Cl)c2)cc1
readoutNumber: 89

compound: CN1CCC[C@@H](CC2c3ccccc3Sc3ccccc32)C1 (racemic)
readoutNumber: 101

compound: Cc1cc(C)nc(NS(=O)(=O)c2ccc(NC(=S)NC(=O)COc3ccc(Br)cc3Cl)cc2)n1
readoutNumber: 103

compound: C=CCN1CC[C@]23c4c5ccc(O)c4O[C@H]2/C(=N/NC(=O)c2ccccc2)CC[C@@]3(O)[C@H]1C5 [naloxone-benzoylhydrazone]
readoutNumber: 97.2

compound: C[N+]12CCC(CC1)C(OC(=O)C(O)(c1ccccc1)c1ccccc1)C2 (configuration not stated)
readoutNumber: 102

compound: Cc1cc(Cn2cnc3c2C[C@@H](C(=O)O)N(C(=O)C(c2ccccc2)c2ccccc2)C3)ccc1N(C)C
readoutNumber: 96.5

compound: CC1(C)S[C@@H]2[C@H](NC(=O)[C@H](NC(=O)N3CCN(S(C)(=O)=O)C3=O)c3ccccc3)C(=O)N2[C@H]1C(=O)O
readoutNumber: 100

compound: CN(C)c1nc(N)c(C(=O)Nc2cccnc2)nc1Cl
readoutNumber: 95.1

compound: Nc1n[nH]c2nnc(-c3c(-c4ccccc4)nn4ccccc34)cc12
readoutNumber: 94.8

compound: O=C(Oc1ccc([N+](=O)[O-])cc1)N1CCC(C(O)(c2ccc3c(c2)OCO3)c2ccc3c(c2)OCO3)CC1
readoutNumber: 96.4

compound: CN(Cc1cnc2nc(N)nc(N)c2n1)c1ccc(C(=O)N[C@@H](CCC(=O)O)C(=O)O)cc1 [methotrexate]
readoutNumber: 14.7

compound: COc1ccc(CN(CCN(C)C)c2ccccn2)cc1
readoutNumber: 98.5

compound: Oc1c(Cl)cc(Cl)c(Cl)c1Cc1c(O)c(Cl)cc(Cl)c1Cl
readoutNumber: 99.9

compound: CCN(CC)CCCCN1c2ccccc2Oc2ccc(Cl)cc21
readoutNumber: 92.6

compound: Cc1ccc(C)c([C@H](O)CNC(C)C)c1 [benzenemethanol,-2,5-dimethyl-[[(1-methylethyl)amino]methyl]]
readoutNumber: 103

compound: CO[C@@]1(NC(=O)CSC[C@@H](N)C(=O)O)C(=O)N2C(C(=O)O)=C(CSc3nnnn3C)CS[C@@H]21
readoutNumber: 104

compound: Cc1cccc2c1CC[C@H](CN1CCC(c3c(Cl)cccc3Cl)CC1)C[C@@H]2O
readoutNumber: 90.2

* * *

Test system: HepG2
testName: cell viability relative to DMSO; higher = less toxic
conditionContext: 72 h; 100 nM
The following compounds are listed with their measured cell viability values.

compound: CC(=N)NCc1cccc(CN)c1 [1400W]
cell viability: 105%
//
compound: Nc1nonc1/C(=N/O)Nc1ccc(F)c(Cl)c1
cell viability: 104%
//
compound: CCn1cnc2c(Nc3cccc(Cl)c3)nc(N[C@@H]3CCCC[C@@H]3N)nc21
cell viability: 103%
//
compound: COC(=O)C1=CO[C@@H](O[C@@H]2O[C@H](CO)[C@@H](O)[C@H](O)[C@H]2O)[C@@H]2C(CO)=CC[C@H]12 [geniposide]
cell viability: 106%
//
compound: C[Se]C[C@H](N)C(=O)O
cell viability: 104%
//
compound: Cc1cc(Nc2ccc(NC(=O)c3ccc(Nc4ccnc5ccccc45)cc3)cc2)nc(N)n1
cell viability: 104%
//
compound: CC(C)(C)CC(C)(C)c1ccc(O)c(Cc2ccc(Cl)cc2Cl)c1
cell viability: 113%
//
compound: O=C(O)c1cn(-c2ccc(F)cc2)c2cc(N3CCNCC3)c(F)cc2c1=O
cell viability: 101%
//
compound: CCCCC(=O)O[C@]1(C(=O)CO)[C@@H](C)C[C@H]2[C@@H]3CCC4=CC(=O)C=C[C@]4(C)[C@@]3(F)[C@@H](O)C[C@@]21C [BETAMETHASONE VALERATE]
cell viability: 90%

src = the supplement of paper PMC13380429
